target: CYP2C9 (Homo sapiens, UniProt P11712); construct: from tissue; host or cells: pooled human liver microsomes; assay: Time-dependent inhibition of CYP450 enzymes in human liver microsomes: CYP2C9; assay type: in vitro ADME; conditions: human, pooled human liver microsomes; CYP2C9, 50 μM, 30 minutes incubation; read-out: % Activity NADPH T30
Sequence (P11712 whole entry): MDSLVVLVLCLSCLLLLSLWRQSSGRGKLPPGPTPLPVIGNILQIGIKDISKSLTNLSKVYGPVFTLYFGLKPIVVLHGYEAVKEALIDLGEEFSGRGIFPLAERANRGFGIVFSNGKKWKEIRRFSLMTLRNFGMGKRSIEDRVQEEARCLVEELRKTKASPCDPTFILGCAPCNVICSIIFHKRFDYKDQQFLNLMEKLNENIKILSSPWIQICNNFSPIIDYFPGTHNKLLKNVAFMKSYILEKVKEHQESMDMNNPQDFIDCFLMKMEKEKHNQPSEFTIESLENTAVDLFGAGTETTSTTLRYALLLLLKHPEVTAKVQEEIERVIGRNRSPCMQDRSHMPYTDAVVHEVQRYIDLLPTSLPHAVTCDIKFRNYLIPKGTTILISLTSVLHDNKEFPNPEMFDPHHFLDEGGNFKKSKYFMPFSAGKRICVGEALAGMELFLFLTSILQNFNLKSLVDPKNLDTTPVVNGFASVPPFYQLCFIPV
READOUT_TYPE: activity at 30 min, 50 µM (%)

- C[C@H]1CC[C@H](N2CC(=O)N(Cc3ccc(F)c(F)c3)C3(CN(C=O)C3)C2=O)CC1 [Compound 1]: 71

====

Assay: Kinetic solubility of crystalline Form II in solvents
Format: physicochemical
Conditions: IPA, 25 °C, organic solvent or mixture, thermodynamic from solid, IPA, read-out: Average Solubility
Method: The solubility of crystalline Form II was analyzed with 15 types of common solvents. Sufficient amount of Form II was suspended in 0.5 mL solvent for a maximum anticipated concentration of Ca. =10-100 mg/ml of the free Form II. The resulting suspensions were then shaken in a platform shaker at 25° C./ 750 rpm for 4 hours. After equilibration, the appearance was recorded, and the pH of the saturated solution was measured for aqueous samples only. […] All diluted samples were then analyzed by HPLC. […]
READOUT_TYPE: solubility at 4 h

• C[C@H]1CC[C@H](N2CC(=O)N(Cc3ccc(F)c(F)c3)C3(CN(C=O)C3)C2=O)CC1 [Form II] = 9800 µg/mL
